- Test system: tumor cell line LoVo
- ASSAY PROTOCOL: in vitro LoVo cell proliferation inhibition assay (CellTiter-Glo cell viability)
- Type: cell-based
- COND: Homo sapiens, LoVo cells
Output schema: class label derived from IC50. Mapping: low value = under 80 nM, medium value = from 80 nM up to 100 nM, high value = 100 nM and over

Study these solved cases before continuing.
compound="CC(C)Oc1cc(N2CCOC[C@H]2C)nc2c(-c3ccn[nH]3)ncc(F)c12 [Example 8]" target_of_assay="tumor cell line LoVo" class="high value"
compound="Cc1cc(-c2cc(N3CCOC[C@H]3C)nc3c(-c4ccn[nH]4)ncc(F)c23)n(C)n1 [Example 16]" target_of_assay="tumor cell line LoVo" class="low value"
compound="C[C@@H]1COCCN1c1cc(C2CC2)c2c(F)cnc(-c3ccn[nH]3)c2n1 [Example 9]" target_of_assay="tumor cell line LoVo" class="medium value"
compound="Cc1noc(C)c1-c1cc(N2CCOC[C@H]2C)nc2c(-c3ccn[nH]3)ncc(F)c12 [Example 15]" target_of_assay="tumor cell line LoVo" class="high value"
compound="Cc1nnn(C)c1-c1cc(N2CCOC[C@H]2C)nc2c(-c3ccn[nH]3)ncc(F)c12 [Example 18]" target_of_assay="tumor cell line LoVo" class="high value"
compound="Cn1nccc1-c1cc(N2C3CCC2COC3)nc2c(-c3ccn[nH]3)ncc(F)c12 [Example 28]" target_of_assay="tumor cell line LoVo" class="high value"
compound="C[C@@H]1COCCN1c1cc(-c2cnnn2C)c2c(F)cnc(-c3ccn[nH]3)c2n1 [Example 4]" target_of_assay="tumor cell line LoVo" class="high value"
compound="Cn1nccc1-c1cc(N2CC3CCC(C2)O3)nc2c(-c3ccn[nH]3)ncc(F)c12 [Example 29]" target_of_assay="tumor cell line LoVo" class="high value"

Ask | Returns: class label. Input: C[C@@H]1COCCN1c1cc(-c2ccc(S(C)(=O)=O)cc2)c2c(F)cnc(-c3ccn[nH]3)c2n1 [Example 23]
Reply | medium value

Ask | Returns: class label. Input: C[C@@H]1COCCN1c1cc(C2(O)CCOCC2)c2c(F)cnc(-c3ccn[nH]3)c2n1 [Example 12]
Reply | high value

Ask | Returns: class label. Input: Cc1ncccc1-c1cc(N2CCOC[C@H]2C)nc2c(-c3ccn[nH]3)ncc(F)c12 [Example 21]
Reply | low value

Ask | Returns: class label. Input: C[C@@H]1COCCN1c1cc(-c2ncnn2C)c2c(F)cnc(-c3ccn[nH]3)c2n1 [Example 6]
Reply | high value

Ask | Returns: class label. Input: C[C@@H]1COCCN1c1cc(-c2ccnc3[nH]ccc23)c2c(F)cnc(-c3ccn[nH]3)c2n1 [Example 24]
Reply | low value
